We begin with a simple list: items and their reported IC50.
Biological target: T1, αvβ3 integrin, P06756
T1 chain 1: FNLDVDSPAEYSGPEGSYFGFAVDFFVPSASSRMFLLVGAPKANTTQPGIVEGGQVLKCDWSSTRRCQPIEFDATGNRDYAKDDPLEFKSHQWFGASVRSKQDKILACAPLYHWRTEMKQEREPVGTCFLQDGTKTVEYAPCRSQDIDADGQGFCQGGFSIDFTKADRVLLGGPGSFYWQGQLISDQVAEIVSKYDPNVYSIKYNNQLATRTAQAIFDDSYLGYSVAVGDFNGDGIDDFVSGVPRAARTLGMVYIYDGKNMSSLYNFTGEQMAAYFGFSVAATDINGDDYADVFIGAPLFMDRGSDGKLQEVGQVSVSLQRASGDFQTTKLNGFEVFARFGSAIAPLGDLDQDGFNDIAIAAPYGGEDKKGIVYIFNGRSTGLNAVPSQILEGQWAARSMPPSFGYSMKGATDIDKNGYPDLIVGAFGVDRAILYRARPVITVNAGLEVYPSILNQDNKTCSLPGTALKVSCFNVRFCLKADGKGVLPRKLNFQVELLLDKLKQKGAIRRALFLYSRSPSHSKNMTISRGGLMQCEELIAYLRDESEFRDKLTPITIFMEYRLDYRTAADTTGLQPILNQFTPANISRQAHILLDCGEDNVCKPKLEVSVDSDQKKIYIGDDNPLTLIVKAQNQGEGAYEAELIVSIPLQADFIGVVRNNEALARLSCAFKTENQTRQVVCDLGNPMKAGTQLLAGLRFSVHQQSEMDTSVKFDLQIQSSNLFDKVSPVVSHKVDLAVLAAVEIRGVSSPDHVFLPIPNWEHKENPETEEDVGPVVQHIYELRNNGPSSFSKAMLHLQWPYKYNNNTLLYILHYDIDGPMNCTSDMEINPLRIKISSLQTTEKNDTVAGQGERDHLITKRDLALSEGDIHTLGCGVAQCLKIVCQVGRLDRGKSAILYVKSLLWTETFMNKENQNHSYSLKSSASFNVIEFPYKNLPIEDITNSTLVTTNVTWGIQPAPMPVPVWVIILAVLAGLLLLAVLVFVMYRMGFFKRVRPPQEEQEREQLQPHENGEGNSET
T1 chain 2: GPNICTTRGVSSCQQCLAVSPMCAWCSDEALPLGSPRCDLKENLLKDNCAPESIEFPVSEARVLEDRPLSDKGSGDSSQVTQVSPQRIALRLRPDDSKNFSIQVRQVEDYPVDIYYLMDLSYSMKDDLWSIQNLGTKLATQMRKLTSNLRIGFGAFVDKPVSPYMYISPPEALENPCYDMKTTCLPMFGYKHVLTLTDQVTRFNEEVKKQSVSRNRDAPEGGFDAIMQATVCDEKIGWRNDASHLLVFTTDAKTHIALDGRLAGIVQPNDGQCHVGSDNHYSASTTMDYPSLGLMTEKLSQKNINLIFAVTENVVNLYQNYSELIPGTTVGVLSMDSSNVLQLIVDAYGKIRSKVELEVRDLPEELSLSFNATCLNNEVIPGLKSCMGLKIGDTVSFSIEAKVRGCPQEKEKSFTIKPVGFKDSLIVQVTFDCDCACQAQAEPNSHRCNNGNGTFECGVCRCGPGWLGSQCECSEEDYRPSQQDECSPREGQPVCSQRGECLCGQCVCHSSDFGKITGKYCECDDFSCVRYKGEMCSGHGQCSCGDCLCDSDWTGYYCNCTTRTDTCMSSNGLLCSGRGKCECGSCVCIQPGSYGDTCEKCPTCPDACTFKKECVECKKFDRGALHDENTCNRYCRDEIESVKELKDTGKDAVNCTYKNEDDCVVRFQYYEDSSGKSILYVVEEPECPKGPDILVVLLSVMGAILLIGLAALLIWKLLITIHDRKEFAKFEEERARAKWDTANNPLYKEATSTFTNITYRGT
Experiment: inhibition of adhesion of JY cells to vitronectin
Property: IC50

>>> print(df.to_string())
                                     binder     result
0  QCESGPCCRNCKFLKEGTICKRARGDDMDDYCNGKTCDCPRNPHKGPAT (modifications not checked) [echistatin, P17347 131-179]  0.0001 µM
1  CTTGPCCRQCKLKPAGTTCWKTSLTSHYCTGKSCDCPLYPG (modifications not checked) [obtustatin]    > 10 µM
2  QEEPCATGPCCRRCKFKRAGKVCRVARGDWNDDYCTGKSCDCPKNPWNG (modifications not checked) [eristostatin, P0C6S4 1-49]       2 µM
3  CTTGPCCRQCKLKPAGTTCWKTSRTSHYCTGKSCDCPVYQG (modifications not checked) [viperisrastatin]    > 10 µM

// data source = patent US20030186334A1
